biological target: Nav1.8 (Homo sapiens); test: Nav1.8 FLIPR HTS; type: cell-based; settings: HEK293, read-out: Average percent inhibition at 10 μM (Nav1.8)
Sequence (Q9Y5Y9 whole entry): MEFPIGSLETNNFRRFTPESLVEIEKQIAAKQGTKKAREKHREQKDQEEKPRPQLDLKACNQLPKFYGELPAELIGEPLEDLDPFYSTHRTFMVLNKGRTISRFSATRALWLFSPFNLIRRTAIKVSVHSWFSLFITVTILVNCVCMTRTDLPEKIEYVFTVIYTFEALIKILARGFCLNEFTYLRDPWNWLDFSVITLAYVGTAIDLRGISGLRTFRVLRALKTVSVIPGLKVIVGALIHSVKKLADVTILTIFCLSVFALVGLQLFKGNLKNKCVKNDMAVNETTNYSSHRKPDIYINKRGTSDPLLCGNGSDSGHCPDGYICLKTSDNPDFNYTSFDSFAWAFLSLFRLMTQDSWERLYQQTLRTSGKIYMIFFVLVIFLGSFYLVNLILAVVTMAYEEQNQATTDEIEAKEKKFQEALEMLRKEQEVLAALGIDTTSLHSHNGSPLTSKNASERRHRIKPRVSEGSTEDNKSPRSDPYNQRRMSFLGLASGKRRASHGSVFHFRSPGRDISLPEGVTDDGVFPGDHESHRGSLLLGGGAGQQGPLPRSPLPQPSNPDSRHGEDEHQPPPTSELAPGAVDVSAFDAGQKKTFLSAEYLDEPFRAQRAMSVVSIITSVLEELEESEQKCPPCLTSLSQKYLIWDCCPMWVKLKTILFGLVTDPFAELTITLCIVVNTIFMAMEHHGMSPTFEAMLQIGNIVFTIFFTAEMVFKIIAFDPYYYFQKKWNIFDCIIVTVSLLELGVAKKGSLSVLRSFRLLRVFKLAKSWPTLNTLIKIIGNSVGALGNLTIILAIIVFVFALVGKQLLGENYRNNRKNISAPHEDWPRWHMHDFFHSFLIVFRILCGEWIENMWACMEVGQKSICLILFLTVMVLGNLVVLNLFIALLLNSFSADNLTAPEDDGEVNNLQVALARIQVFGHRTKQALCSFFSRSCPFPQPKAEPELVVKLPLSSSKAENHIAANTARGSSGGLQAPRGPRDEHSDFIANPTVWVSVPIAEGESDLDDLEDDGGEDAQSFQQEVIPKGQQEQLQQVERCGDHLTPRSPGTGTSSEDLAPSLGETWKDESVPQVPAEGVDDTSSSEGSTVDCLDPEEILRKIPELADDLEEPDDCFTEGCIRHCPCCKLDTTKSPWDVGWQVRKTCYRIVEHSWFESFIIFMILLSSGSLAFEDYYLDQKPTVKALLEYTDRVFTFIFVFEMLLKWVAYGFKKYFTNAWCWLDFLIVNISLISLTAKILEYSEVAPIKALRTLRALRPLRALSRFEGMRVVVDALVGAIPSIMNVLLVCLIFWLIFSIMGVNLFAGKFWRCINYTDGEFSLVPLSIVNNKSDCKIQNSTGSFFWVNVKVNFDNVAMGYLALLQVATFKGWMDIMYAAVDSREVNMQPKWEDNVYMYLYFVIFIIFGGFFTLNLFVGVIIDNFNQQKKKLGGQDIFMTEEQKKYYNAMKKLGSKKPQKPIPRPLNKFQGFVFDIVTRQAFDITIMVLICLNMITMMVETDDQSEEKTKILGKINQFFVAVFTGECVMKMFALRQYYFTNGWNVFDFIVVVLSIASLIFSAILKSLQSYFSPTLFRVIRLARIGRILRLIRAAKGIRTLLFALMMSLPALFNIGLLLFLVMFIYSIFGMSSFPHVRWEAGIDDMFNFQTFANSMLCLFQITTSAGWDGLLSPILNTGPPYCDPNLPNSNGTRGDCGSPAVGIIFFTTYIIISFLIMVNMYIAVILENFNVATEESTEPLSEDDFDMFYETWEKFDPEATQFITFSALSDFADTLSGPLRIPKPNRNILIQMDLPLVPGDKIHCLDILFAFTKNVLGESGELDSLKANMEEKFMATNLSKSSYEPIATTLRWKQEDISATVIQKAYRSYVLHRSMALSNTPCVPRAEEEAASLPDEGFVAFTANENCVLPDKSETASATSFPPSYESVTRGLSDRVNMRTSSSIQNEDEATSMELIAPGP
Counter-ions that a name gives are not always drawn.
Label rule, in plain words: inhibition at 10 µM of 90% and up is Fulfilled, under 90% is Not fulfilled.

Solved entries (count: 8):
[[record]]
molecule = "O=c1[nH]c2ccccc2n1C1CCN(CCCC(c2ccc(F)cc2)c2ccc(F)cc2)CC1 [Pimozide]"
target_entity = "Nav1.8 (Homo sapiens)"
assigned_category = "Fulfilled"

[[record]]
molecule = "CC(C)(C)NCC(O)c1ccc(O)c(CO)c1 (stereo not drawn)"
target_entity = "Nav1.8 (Homo sapiens)"
assigned_category = "Not fulfilled"

[[record]]
molecule = "CCCCCCNC(=O)n1cc(F)c(=O)[nH]c1=O"
target_entity = "Nav1.8 (Homo sapiens)"
assigned_category = "Fulfilled"

[[record]]
molecule = "CC(COc1ccccc1)N(CCCl)Cc1ccccc1 (stereo not drawn) [Phenoxybenzamine hydrochloride]"
target_entity = "Nav1.8 (Homo sapiens)"
assigned_category = "Not fulfilled"

[[record]]
molecule = "CCOC1O[C@H]([C@@H](COCc2ccccc2)OCc2ccccc2)[C@H](OCc2ccccc2)[C@H]1O (stereo partly drawn) [Tribenoside]"
target_entity = "Nav1.8 (Homo sapiens)"
assigned_category = "Not fulfilled"

[[record]]
molecule = "CCN(CC)CC#CCOC(=O)C(O)(c1ccccc1)C1CCCCC1 (stereo not drawn) [Oxybutynin chloride]"
target_entity = "Nav1.8 (Homo sapiens)"
assigned_category = "Not fulfilled"

[[record]]
molecule = "CCOC(=O)C1=C[C@]2(CC)CCCN3CCc4c(n1c1ccccc41)[C@@H]32"
target_entity = "Nav1.8 (Homo sapiens)"
assigned_category = "Fulfilled"

[[record]]
molecule = "CC(Cc1ccc(O)cc1)NCC(O)c1cc(O)cc(O)c1 (stereo not drawn) [Fenoterol hydrobromide]"
target_entity = "Nav1.8 (Homo sapiens)"
assigned_category = "Not fulfilled"


Now, please, on to the next molecule.
Enquiry: Record COCCOC(=O)C1=C(C)NC(C)=C(C(=O)OC(C)C)C1c1cccc([N+](=O)[O-])c1 (stereo not drawn) ; criterion: inhibition at 10 µM no lower than 90%. Met?
Return: Fulfilled

###

biological target: Nav1.8 (Homo sapiens); test: Nav1.8 FLIPR HTS; type: cell-based; details: HEK293, read-out: Average percent inhibition at 10 μM (Nav1.8)
Where a name gives a salt, the structure may show the parent alone.
Quick reference for inhibition at 10 µM among some compounds
Answer shape: numeric part, then the unit.

Here are 3 compounds together with their reported answers.
[[record]]
compound = "CN(C)CCC=C1c2ccccc2COc2ccccc21 [Doxepin hydrochloride]"
target_entity = "Nav1.8 (Homo sapiens)"
result = "88.7%"

[[record]]
compound = "CC(NCCC(c1ccccc1)c1ccccc1)c1ccccc1 (stereo not drawn) [Fendiline hydrochloride]"
target_entity = "Nav1.8 (Homo sapiens)"
result = "91.3%"

[[record]]
compound = "O=C(c1ccc(OCCN2CCCCC2)cc1)c1c(-c2ccc(O)cc2)sc2cc(O)ccc12 [Raloxifene hydrochloride]"
target_entity = "Nav1.8 (Homo sapiens)"
result = "88.4%"


Enquiry: Supply measured inhibition at 10 µM of CN1CCN(CCCN2c3ccccc3Sc3ccc(C(F)(F)F)cc32)CC1 [Trifluoperazine dihydrochloride] in your reply.
Return: 79.1%

Enquiry: Supply measured inhibition at 10 µM of CN(C/C=C/c1ccccc1)Cc1cccc2ccccc12 [Naftifine hydrochloride] in your reply.
Return: 96.1%

###

target: Nav1.8 (Homo sapiens); assay: Nav1.8 automated patch clamp
Where a name gives a salt, the structure may show the parent alone.
PARAMETER: IC50 (nM)
Answer format: numeric, nM implied, no suffix.

[[record]]
molecule = "COC(=O)C1=C(C#N)NC(C)=C(C(=O)OC(C)C)C1c1cccc([N+](=O)[O-])c1 (stereo not shown)"
parameter = "IC50"
recorded_number = 600

[[record]]
molecule = "COCCOC(=O)C1=C(C)NC(C)=C(C(=O)OC(C)C)C1c1cccc([N+](=O)[O-])c1 (stereo not shown)"
parameter = "IC50"
recorded_number = 1200

[[record]]
molecule = "COC(=O)C1=C(C)NC(C)=C(C(=O)OCCN(C)Cc2ccccc2)C1c1cccc([N+](=O)[O-])c1 (stereo not shown) [Nicardipine hydrochloride]"
parameter = "IC50"
recorded_number = 600


Let us move to another entry and its IC50.
Enquiry: Supply measured IC50 of COC(=O)C1=C(C)NC(C)=C(C(=O)OC2CCCN(Cc3ccccc3)C2)C1c1cccc([N+](=O)[O-])c1 (stereo not shown) [Benidipine hydrochloride] in your reply.
Return: 4400

###

biological target: Nav1.8 (Homo sapiens); assay: Nav1.8 FLIPR HTS; type: cell-based; settings: HEK293, read-out: Average percent inhibition at 10 μM (Nav1.8)
Counter-ions that a name gives are not always drawn.
Label rule, in plain words: inhibition at 10 µM of 90% and up is condition met, under 90% is condition not met.

Solved entries (count: 4):
[[record]]
compound = "C[C@]12CC[C@@H]3c4ccc(O)cc4CC[C@H]3[C@@H]1CCC2=O"
target_entity = "Nav1.8 (Homo sapiens)"
assigned_category = "condition not met"

[[record]]
compound = "O=c1cc(-c2ccc(O)c(O)c2)oc2cc(O)cc(O)c12"
target_entity = "Nav1.8 (Homo sapiens)"
assigned_category = "condition not met"

[[record]]
compound = "Cc1cccc(C)c1OCC(=O)N[C@@H](Cc1ccccc1)[C@@H](O)C[C@H](Cc1ccccc1)NC(=O)[C@H](C(C)C)N1CCCNC1=O"
target_entity = "Nav1.8 (Homo sapiens)"
assigned_category = "condition not met"

[[record]]
compound = "COC(=O)C1=C(C)NC(C)=C(C(=O)OC2CCCN(Cc3ccccc3)C2)C1c1cccc([N+](=O)[O-])c1 (stereo not shown) [Benidipine hydrochloride]"
target_entity = "Nav1.8 (Homo sapiens)"
assigned_category = "condition met"


Now, please, on to the next compound.
Enquiry: Record CC(C)(C)NC(=O)[C@@H]1C[C@@H]2CCCC[C@@H]2CN1C[C@@H](O)[C@H](Cc1ccccc1)NC(=O)[C@H](CC(N)=O)NC(=O)c1ccc2ccccc2n1 [Saquinavir mesylate] ; criterion: inhibition at 10 µM no lower than 90%. Met?
Return: condition met

###

biological target: human KV7.1 (Homo sapiens, UniProt P51787); experiment: KV7.1 86Rb+ efflux HTS; assay type: cell-based; conditions: 10 μM, n=2, CHO cells, 86Rb+ efflux, normalized to 10 μM chromanol 293B control
Sequence (P51787 whole entry): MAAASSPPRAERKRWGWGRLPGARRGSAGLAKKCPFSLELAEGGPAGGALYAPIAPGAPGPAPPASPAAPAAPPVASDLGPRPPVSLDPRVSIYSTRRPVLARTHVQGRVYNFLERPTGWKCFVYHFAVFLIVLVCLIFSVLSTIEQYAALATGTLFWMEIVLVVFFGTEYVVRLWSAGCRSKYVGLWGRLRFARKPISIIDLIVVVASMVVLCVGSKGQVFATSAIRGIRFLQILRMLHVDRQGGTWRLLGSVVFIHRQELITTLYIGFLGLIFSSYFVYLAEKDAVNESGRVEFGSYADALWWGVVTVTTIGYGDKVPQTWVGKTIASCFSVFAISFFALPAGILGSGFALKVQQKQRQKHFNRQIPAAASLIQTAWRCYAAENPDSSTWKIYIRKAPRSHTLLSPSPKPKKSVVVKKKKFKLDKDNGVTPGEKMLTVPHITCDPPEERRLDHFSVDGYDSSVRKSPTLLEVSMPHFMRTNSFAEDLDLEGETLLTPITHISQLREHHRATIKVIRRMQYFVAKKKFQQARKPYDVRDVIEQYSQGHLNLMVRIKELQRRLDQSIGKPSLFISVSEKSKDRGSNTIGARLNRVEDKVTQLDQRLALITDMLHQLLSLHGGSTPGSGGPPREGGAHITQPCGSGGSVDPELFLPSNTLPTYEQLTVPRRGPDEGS
Quick reference for Average percent inhibition at 10 μM (KCNQ1) among some compounds
Answer format: numeric, % implied, no suffix.

Here are 2 compounds together with their reported answers.
[[record]]
compound = "CN1CCCN(C(c2ccccc2)c2ccc(Cl)cc2)CC1.Cl.Cl (centres unmarked) [Homochlorcyclizine dihydrochloride]"
target_entity = "human KV7.1 (Homo sapiens, UniProt P51787)"
recorded_number = 43.5

[[record]]
compound = "C[C@]12CC[C@@H]3c4ccc(O)cc4CC[C@H]3[C@@H]1CC[C@@H]2O"
target_entity = "human KV7.1 (Homo sapiens, UniProt P51787)"
recorded_number = 56.3


Enquiry: System human KV7.1 (Homo sapiens, UniProt P51787). Read-out Average percent inhibition at 10 μM (KCNQ1). Item CN1CCN(C(c2ccccc2)c2ccccc2)CC1.Cl [Cyclizine hydrochloride] . Report value.
Return: 45.9

Enquiry: System human KV7.1 (Homo sapiens, UniProt P51787). Read-out Average percent inhibition at 10 μM (KCNQ1). Item CC(=O)O[C@H]1CC[C@@]2(C)C(=CC[C@@H]3[C@@H]2CC[C@]2(C)C(=O)CC[C@@H]32)C1 [Dehydroisoandosterone 3-acetate] . Report value.
Return: 52.9

Enquiry: System human KV7.1 (Homo sapiens, UniProt P51787). Read-out Average percent inhibition at 10 μM (KCNQ1). Item CCSc1ccc2c(c1)N(CCCN1CCN(C)CC1)c1ccccc1S2.O=C(O)CC(O)C(=O)O.O=C(O)CC(O)C(=O)O [Thiethylperazine dimalate] . Report value.
Return: 56.9

###

target: human KV7.1 (Homo sapiens, UniProt P51787); assay: KV7.1 86Rb+ efflux HTS; assay type: cell-based; settings: CHO, read-out: Average percent inhibition at 10 μM (KCNQ1)
Counter-ions that a name gives are not always drawn.
Label rule, in plain words: inhibition at 10 µM of 50% and up is MET, under 50% is NOT MET.

Solved entries (count: 3):
[[record]]
molecule = "CCOC(=O)[C@H](CCc1ccccc1)N[C@H]1CCc2ccccc2N(CC(=O)O)C1=O [Benazepril hydrochloride]"
target_entity = "human KV7.1 (Homo sapiens, UniProt P51787)"
assigned_category = "NOT MET"

[[record]]
molecule = "c1ccc2c(c1)Nc1ccccc1S2"
target_entity = "human KV7.1 (Homo sapiens, UniProt P51787)"
assigned_category = "MET"

[[record]]
molecule = "CC1(C)O[C@@H]2[C@@H](CO[C@@]3(COS(N)(=O)=O)OC(C)(C)O[C@@H]23)O1 [Topiramate]"
target_entity = "human KV7.1 (Homo sapiens, UniProt P51787)"
assigned_category = "NOT MET"


Enquiry: Record CC(C)OC(=O)CCC/C=C\C[C@@H]1[C@@H](CC[C@@H](O)CCc2ccccc2)[C@H](O)C[C@@H]1O ; criterion: inhibition at 10 µM no lower than 50%. Met?
Return: MET

Enquiry: Record CC[C@H](c1ccc(O)cc1)[C@@H](CC)c1ccc(O)cc1 ; criterion: inhibition at 10 µM no lower than 50%. Met?
Return: MET

Enquiry: Record C[C@]12Cc3c[nH]nc3C[C@@H]1CC[C@@H]1[C@@H]2CC[C@@]2(C)[C@H]1CC[C@]2(C)O ; criterion: inhibition at 10 µM no lower than 50%. Met?
Return: NOT MET

Enquiry: Record CCOC(=O)C1=C(C)NC(C)=C(C(=O)OC)C1c1cccc([N+](=O)[O-])c1 (stereo not shown) ; criterion: inhibition at 10 µM no lower than 50%. Met?
Return: NOT MET

Enquiry: Record CCN1CCN(C(=O)N[C@@H](C(=O)N[C@@H]2C(=O)N3[C@@H]2SC(C)(C)[C@@H]3C(=O)O)c2ccccc2)C(=O)C1=O [Piperacillin sodium salt] ; criterion: inhibition at 10 µM no lower than 50%. Met?
Return: NOT MET

Enquiry: Record Fc1ccc([C@@H]2CCNC[C@H]2COc2ccc3c(c2)OCO3)cc1 [Paroxetine Hydrochloride] ; criterion: inhibition at 10 µM no lower than 50%. Met?
Return: MET

Enquiry: Record C[C@]12CC[C@H]3C(=CCc4cc(O)ccc43)[C@@H]1CCC2=O ; criterion: inhibition at 10 µM no lower than 50%. Met?
Return: MET

Enquiry: Record COc1cccc(N(C)C(=S)Oc2ccc3c(c2)CCCC3)n1 [Liranaftate] ; criterion: inhibition at 10 µM no lower than 50%. Met?
Return: MET

Enquiry: Record Clc1ccccc1C(c1ccccc1)(c1ccccc1)n1ccnc1 ; criterion: inhibition at 10 µM no lower than 50%. Met?
Return: NOT MET

Enquiry: Record C#C[C@]1(O)CC[C@H]2[C@@H]3[C@H](C)CC4=C(CCC(=O)C4)[C@H]3CC[C@@]21C ; criterion: inhibition at 10 µM no lower than 50%. Met?
Return: MET

Enquiry: Record CSc1nc2cc(Cl)c(Oc3cccc(Cl)c3Cl)cc2[nH]1 ; criterion: inhibition at 10 µM no lower than 50%. Met?
Return: MET

Enquiry: Record C#C[C@]1(O)CC[C@H]2[C@@H]3CCc4cc(O)ccc4[C@H]3CC[C@@]21C ; criterion: inhibition at 10 µM no lower than 50%. Met?
Return: MET

Enquiry: Record CCc1oc2ccccc2c1C(=O)c1cc(Br)c(O)c(Br)c1 ; criterion: inhibition at 10 µM no lower than 50%. Met?
Return: MET

Enquiry: Record Cc1cccc(N(C)C(=S)Oc2ccc3ccccc3c2)c1 [Tolnaftate] ; criterion: inhibition at 10 µM no lower than 50%. Met?
Return: MET

Enquiry: Record C#C[C@]1(OC(C)=O)CC[C@H]2[C@@H]3CCC4=C[C@@H](OC(C)=O)CC[C@@H]4[C@H]3CC[C@@]21C [Ethynodiol diacetate] ; criterion: inhibition at 10 µM no lower than 50%. Met?
Return: MET

Enquiry: Record CC(C)OC(=O)C(C)(C)Oc1ccc(C(=O)c2ccc(Cl)cc2)cc1 [Fenofibrate] ; criterion: inhibition at 10 µM no lower than 50%. Met?
Return: MET

Enquiry: Record O=C(c1ccc(OCCN2CCCCC2)cc1)c1c(-c2ccc(O)cc2)sc2cc(O)ccc12 [Raloxifene hydrochloride] ; criterion: inhibition at 10 µM no lower than 50%. Met?
Return: NOT MET

Enquiry: Record COc1ccc(C(=O)c2ccccc2)c(O)c1 ; criterion: inhibition at 10 µM no lower than 50%. Met?
Return: MET

Enquiry: Record CS(=O)(=O)Nc1ccc([N+](=O)[O-])cc1Oc1ccccc1 [Nimesulide] ; criterion: inhibition at 10 µM no lower than 50%. Met?
Return: NOT MET

Enquiry: Record CC/C(=C(/CC)c1ccc(O)cc1)c1ccc(O)cc1 ; criterion: inhibition at 10 µM no lower than 50%. Met?
Return: MET

Enquiry: Record C[C@H](CCC(=O)O)[C@H]1CC[C@H]2[C@@H]3CC[C@@H]4C[C@H](O)CC[C@]4(C)[C@H]3CC[C@]12C ; criterion: inhibition at 10 µM no lower than 50%. Met?
Return: MET
